Test Method Notes: High-throughput (HT) solubility determination
Assay type: physicochemical
Protocol Conditions: kinetic from dmso stock; FaSSIF pH 6.5, shaken 24 hours at 25° C.; read-out: pH 6.5 (FaSSIF) solubility
Assay Readout: solubility kinetic at 24 h (µM)

// below: answered compounds
In [3]: df
Out[3]:
                            chemical_smiles  reported_result
0  CCOC(=O)c1[nH]c2nc1-c1ccc(NC(=O)OC)cc1NC(=O)C(C)(C)CCC[C@@H]2c1ccc(-c2cc(F)ccc2OC(F)F)c[n+]1[O-]               40
1  COC(=O)Nc1ccc2c(c1)NC(=O)C(C)(C)CCC[C@H](c1ccc(-c3cc(F)ccc3-n3cc(C(F)(F)F)cn3)c[n+]1[O-])c1nc-2c(C(=O)OC)[nH]1               64

I. CCOC(=O)c1[nH]c2nc1-c1ccc(NC(=O)OC)cc1NC(=O)C(C)(C)CCC[C@@H]2c1ccc(-c2cc(Cl)ccc2-n2cc(C(F)(F)F)cn2)c[n+]1[O-]
II. COC(=O)Nc1ccc2c(c1)NC(=O)C(C)(C)CCC[C@H](c1ccc(-c3cccc(Cl)c3F)c[n+]1[O-])c1nc-2c(C(=O)O)[nH]1
Which one would you say has the larger solubility kinetic at 24 h value: I , or II ? Answer = label.
II
(II: 138 µM, I: 27 µM)

====

Test Method Notes: Rat pharmacokinetics (cassette IV or screening IV/PO)
Type: in vivo
Protocol Conditions: male; rat plasma, mean residence time
Procedure: Plasma pharmacokinetic parameters for clearance, volume of distribution, half-life and mean residence time (MRT) were determined in rats from IV cassette administration studies. […] Plasma samples were extracted using protein precipitation and analyzed by liquid chromatography separation followed by mass spec detection (LCMS/MS), using a standard curve for each compound. Plasma pharmacokinetic parameters were calculated by non-compartmental methods. […]
Assay Readout: MRT (h)

>>> print(df.to_string())
                            chemical_smiles  uom  reported_result
0  COC(=O)Nc1ccc2c(c1)NC(=O)C(C)(C)CCC[C@H](c1ccc(-c3cc(F)ccc3-n3cc(C(F)(F)F)cn3)c[n+]1[O-])c1nc-2c(C(=O)OC)[nH]1    h              3.1
1  CCOC(=O)c1[nH]c2nc1-c1ccc(NC(=O)OC)cc1NC(=O)C(C)(C)CCC[C@@H]2c1ccc(-c2cc(Cl)ccc2-n2cc(C(F)(F)F)cn2)c[n+]1[O-]    h              3.7
2  CCOC(=O)c1[nH]c2nc1-c1ccc(NC(=O)OC)cc1NC(=O)C(C)(C)CCC[C@@H]2c1ccc(-c2cccc(Cl)c2F)c[n+]1[O-]    h              3.7

====

Test Method Notes: High-throughput (HT) solubility determination
Format: physicochemical
Protocol Conditions: phosphate buffered saline (PBS) pH 2, aqueous buffer, kinetic from dmso stock; PBS pH 2, shaken 24 hours at 25° C.; read-out: pH 2 solubility
Assay Readout: solubility kinetic at 24 h (µM)

>>> df
                            chemical_smiles  reported_result
0  CCOC(=O)c1[nH]c2nc1-c1ccc(NC(=O)OC)cc1NC(=O)C(C)(C)CCC[C@@H]2c1ccc(-c2cccc(Cl)c2F)c[n+]1[O-]              108
1  CCOC(=O)c1[nH]c2nc1-c1ccc(NC(=O)OC)cc1NC(=O)C(C)(C)CCC[C@@H]2c1ccc(-c2cc(F)ccc2-n2cc(C(F)(F)F)cn2)c[n+]1[O-]              147

A. CCOC(=O)c1[nH]c2nc1-c1ccc(NC(=O)OC)cc1NC(=O)C(C)(C)CCC[C@@H]2c1ccc(-c2cc(Cl)ccc2-n2cc(C(F)(F)F)cn2)c[n+]1[O-]
B. COC(=O)Nc1ccc2c(c1)NC(=O)C(C)(C)CCC[C@H](c1ccc(-c3cc(F)ccc3-n3cc(C(F)(F)F)cn3)c[n+]1[O-])c1nc-2c(C(=O)O)[nH]1
Please compare: A and B . Report which one has the smaller solubility kinetic at 24 h value. Answer = label.
A
